target: HIV-1 pseudovirus SC05.8C11.2344 (HIV-1); experiment: cell-based or functional assay
Here the recorded IC50 (neutralization in TZM.bl cells) is given for each entry.
# answer = value followed by unit

IC50 (neutralization in TZM.bl cells) reading for MS-82 (antibody, V domains shown) VH: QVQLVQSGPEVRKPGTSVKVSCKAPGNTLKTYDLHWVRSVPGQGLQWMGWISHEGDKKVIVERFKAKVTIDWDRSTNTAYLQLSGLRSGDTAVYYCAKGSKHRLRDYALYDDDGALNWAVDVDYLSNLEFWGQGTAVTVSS VL: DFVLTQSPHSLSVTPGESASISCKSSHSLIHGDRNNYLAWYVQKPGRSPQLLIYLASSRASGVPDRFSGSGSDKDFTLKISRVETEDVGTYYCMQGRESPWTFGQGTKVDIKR : 0.502 µg/mL

Pending binder:
IC50 (neutralization in TZM.bl cells) reading for MS-72 (antibody, V domains shown) VH: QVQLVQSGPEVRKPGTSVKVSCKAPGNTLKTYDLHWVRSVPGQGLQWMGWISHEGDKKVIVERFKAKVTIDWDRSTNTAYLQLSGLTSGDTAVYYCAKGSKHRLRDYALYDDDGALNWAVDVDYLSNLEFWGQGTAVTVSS VL: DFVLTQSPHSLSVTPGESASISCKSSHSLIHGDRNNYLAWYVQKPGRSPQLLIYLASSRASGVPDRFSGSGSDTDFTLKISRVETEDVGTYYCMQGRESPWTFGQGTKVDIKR : 0.791 µg/mL

Ref: patent US20220025021A1
